Entry source: patent US20080227866A1

test: Bitterness reduction in a bitter principle solution, rated by a group of experts (caffeine); type: in vivo; details: 100 ppm substance in aqueous 500 ppm caffeine
Provide the reported Testers positive (number of testers who were able to detect masking) of each item.

Recorded Testers positive (number of testers who were able to detect masking) for COc1ccc(/C=C/C(=O)CC(C)=O)cc1O [compound 10] , please?
12

For the compound COc1ccc(CCC(=O)CC(C)=O)cc1O [compound 11] , what Testers positive (number of testers who were able to detect masking) is on record?
11

GET /values?readout=Testers positive (number of testers who were able to detect masking)&item= O=C(O)c1ccc(O)cc1O [2,4-DHB, 2,4-dihydroxybenzoic acid, reference compound]
9

Recorded Testers positive (number of testers who were able to detect masking) for COc1cc(/C=C/C(=O)CC(C)=O)ccc1O [compound 1] , please?
9

Which value of Testers positive (number of testers who were able to detect masking) has been reported for COc1cc(CCC(=O)CC(C)=O)ccc1O [compound 4] in the records?
15

###

assay: Bitterness reduction in a bitter principle solution, rated by a group of experts (caffeine); type: in vivo; details: 100 ppm substance in aqueous 500 ppm caffeine; panel mean ± 95% confidence interval
Would you kindly list Bitter impression (1-10) with for each of these molecules?
No unit in the answer, only the number.

# Bitter impression (1-10) with lookup, item `COc1cc(/C=C/C(=O)CC(C)=O)ccc1O`
5.1

Quick check: Bitter impression (1-10) with of `COc1ccc(/C=C/C(=O)CC(C)=O)cc1O` ?
4.6

What value of Bitter impression (1-10) with has been reported for the following molecule? O=C(O)c1ccc(O)cc1O [2,4-DHB, 2,4-dihydroxybenzoic acid, reference compound]
5.0

Quick one: Bitter impression (1-10) with of `COc1ccc(CCC(=O)CC(C)=O)cc1O` ?
4.2

Please give the measured Bitter impression (1-10) with for this molecule: `COc1cc(CCC(=O)CC(C)=O)ccc1O`
3.9
